measurement target: JAK2 (Homo sapiens)
Sequence (O60674 whole entry, species assumed): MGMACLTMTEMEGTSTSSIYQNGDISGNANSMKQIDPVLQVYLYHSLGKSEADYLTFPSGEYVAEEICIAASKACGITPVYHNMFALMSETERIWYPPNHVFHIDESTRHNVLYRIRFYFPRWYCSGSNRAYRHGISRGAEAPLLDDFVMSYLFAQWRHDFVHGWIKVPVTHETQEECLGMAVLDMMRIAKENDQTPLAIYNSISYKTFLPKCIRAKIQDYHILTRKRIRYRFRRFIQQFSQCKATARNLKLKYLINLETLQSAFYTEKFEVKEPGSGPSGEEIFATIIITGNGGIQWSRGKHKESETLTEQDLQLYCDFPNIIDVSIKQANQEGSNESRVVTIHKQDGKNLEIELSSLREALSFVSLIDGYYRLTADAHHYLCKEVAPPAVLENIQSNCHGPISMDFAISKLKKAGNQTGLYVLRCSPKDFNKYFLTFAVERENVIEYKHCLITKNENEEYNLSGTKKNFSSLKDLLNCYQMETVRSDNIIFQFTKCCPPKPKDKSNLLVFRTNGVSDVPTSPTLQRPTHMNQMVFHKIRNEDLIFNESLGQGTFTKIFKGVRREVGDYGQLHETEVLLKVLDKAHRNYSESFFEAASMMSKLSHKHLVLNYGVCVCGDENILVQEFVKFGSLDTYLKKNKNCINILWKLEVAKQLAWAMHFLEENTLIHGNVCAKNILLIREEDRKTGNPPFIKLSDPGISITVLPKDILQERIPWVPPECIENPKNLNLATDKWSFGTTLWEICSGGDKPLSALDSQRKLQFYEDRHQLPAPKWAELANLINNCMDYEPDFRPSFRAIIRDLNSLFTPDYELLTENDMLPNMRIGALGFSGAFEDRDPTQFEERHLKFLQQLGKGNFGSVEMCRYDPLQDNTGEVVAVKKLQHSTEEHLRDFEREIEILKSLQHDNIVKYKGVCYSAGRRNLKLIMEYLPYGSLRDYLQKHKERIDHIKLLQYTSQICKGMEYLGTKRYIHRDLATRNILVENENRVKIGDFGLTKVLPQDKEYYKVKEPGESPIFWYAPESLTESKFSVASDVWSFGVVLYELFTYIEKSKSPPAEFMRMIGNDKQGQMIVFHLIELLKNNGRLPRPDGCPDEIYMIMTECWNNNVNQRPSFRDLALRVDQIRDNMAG
property name: IC50

Field: example entries. Status: answers known.
molecule	IC50
CN(c1ncnc2[nH]ccc12)C1CCC2(CC1)CCN(CC(F)(F)F)CC2 [Compound 79]	100 to 1000 nM
CCC(=O)N1CC2(CC(N(C)c3ncnc4[nH]ccc34)C2)C1 [Compound 5]	100 to 1000 nM
CN(c1ncnc2[nH]ccc12)C1CC2(C1)CN(C(=O)CCC(F)(F)F)C2 [Compound 21]	100 to 1000 nM
CN(c1ncnc2[nH]ccc12)C1CCC2(CC1)CCN(C(=O)CCC(F)(F)F)CC2 [Compound 91]	100 to 1000 nM
CN(c1ncnc2[nH]ccc12)C1CC2(C1)CN(C(=O)Cc1ccc(C#N)cc1)C2 [Compound 15]	1000 to 10000 nM
CN(c1ncnc2[nH]ccc12)C1CC2(C1)CN(C(=O)c1ccc(Cl)cn1)C2 [Compound 32]	1000 to 10000 nM

Sure, the documented IC50 for CC(=O)N1CC2(CC(N(C)c3ncnc4[nH]ccc34)C2)C1 [Compound 4] is 100 to 1000 nM
